Items are presented alongside their recorded PBM binding z-score.
# Test system: PPARg homodimer (NR concentration 180 nM)
# protocol.description: PBM binding z-score (relative to random genomic background probes); higher = stronger binding; sequences stand for … in GC…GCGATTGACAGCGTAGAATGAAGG
Would you mind answering with just the numeric figure?

Worked set:
macromolecule.sequence: CTACCAAGGTGAACAAGGTTGTTGATTACTATTC
target.under.test: PPARg homodimer (NR concentration 180 nM)
parameter: PBM binding z-score
endpoint.value: 0.436
--
macromolecule.sequence: ACTATTAGTTGACTTAGGGCAACCGATACGACGC
target.under.test: PPARg homodimer (NR concentration 180 nM)
parameter: PBM binding z-score
endpoint.value: -0.697
--
macromolecule.sequence: ATATGTAGGTTTTCGGGTCATTCAGTTTGCGCAT
target.under.test: PPARg homodimer (NR concentration 180 nM)
parameter: PBM binding z-score
endpoint.value: 2.39
--
macromolecule.sequence: ATCGCAAGGTCGAGGTGAGTATAGAGAAAGGGAA
target.under.test: PPARg homodimer (NR concentration 180 nM)
parameter: PBM binding z-score
endpoint.value: -0.0351

Quick one: PBM binding z-score of `ACTATTAGTTGACTTAGGGCACCCGATACGACGC` ?
0.282

Param item = `CGTCCAAGGTCAATGCTTGGTCAGTGAAAGCATT` ; retrieve measured PBM binding z-score.
3.32

Sample `CCTACTGGGCCAAGGTAATTGATCAGTCAAAGCA` — what was its PBM binding z-score?
-0.616

I would be grateful if you could share the reported PBM binding z-score for `CAGACTGGGGCAAAGGTTACCATACTCAGTACGA` .
1.61
